Test system: Hepatotoxicity
Assay: FDA HLAED, gamma-glutamyl transferase (GGT) increase
Settings: human
parameter: GGT Increase - Activity Score

Answered examples (5):
CO/N=C(\C(=O)N[C@@H]1C(=O)N2C(C(=O)OC(C)OC(C)=O)=C(COC(N)=O)CS[C@H]12)c1ccco1 (some centres undefined)	Inactive
O=P1(NCCCl)OCCCN1CCCl (centres undefined) [IFOSFAMIDE]	Inactive
CC1(C)C(C=C(Cl)Cl)C1C(=O)OCc1cccc(Oc2ccccc2)c1 (centres undefined)	Inactive
CCC1(c2ccc(N)cc2)CCC(=O)NC1=O (centres undefined) [AMINOGLUTETHIMIDE]	Inactive
C[C@]12CC[C@@H]3c4ccc(O)cc4CC[C@H]3[C@@H]1CC[C@@H]2OC(=O)CCC1CCCC1 [ESTRADIOL CYPIONATE]	Inactive

Query string: Which GGT Increase - Activity Score value is on record for `CCn1nc(C(=O)O)c(=O)c2cc3c(cc21)OCO3` ?
Result string: Inactive

Query string: What about `CC(=O)OCC1=C(C(=O)O)N2C(=O)[C@@H](NC(=O)CSc3ccncc3)[C@H]2SC1` ?
Result string: Inactive
